# System: PI4KB (human) (UniProt Q9UBF8)
# Sequence (Q9UBF8 whole entry, looked up): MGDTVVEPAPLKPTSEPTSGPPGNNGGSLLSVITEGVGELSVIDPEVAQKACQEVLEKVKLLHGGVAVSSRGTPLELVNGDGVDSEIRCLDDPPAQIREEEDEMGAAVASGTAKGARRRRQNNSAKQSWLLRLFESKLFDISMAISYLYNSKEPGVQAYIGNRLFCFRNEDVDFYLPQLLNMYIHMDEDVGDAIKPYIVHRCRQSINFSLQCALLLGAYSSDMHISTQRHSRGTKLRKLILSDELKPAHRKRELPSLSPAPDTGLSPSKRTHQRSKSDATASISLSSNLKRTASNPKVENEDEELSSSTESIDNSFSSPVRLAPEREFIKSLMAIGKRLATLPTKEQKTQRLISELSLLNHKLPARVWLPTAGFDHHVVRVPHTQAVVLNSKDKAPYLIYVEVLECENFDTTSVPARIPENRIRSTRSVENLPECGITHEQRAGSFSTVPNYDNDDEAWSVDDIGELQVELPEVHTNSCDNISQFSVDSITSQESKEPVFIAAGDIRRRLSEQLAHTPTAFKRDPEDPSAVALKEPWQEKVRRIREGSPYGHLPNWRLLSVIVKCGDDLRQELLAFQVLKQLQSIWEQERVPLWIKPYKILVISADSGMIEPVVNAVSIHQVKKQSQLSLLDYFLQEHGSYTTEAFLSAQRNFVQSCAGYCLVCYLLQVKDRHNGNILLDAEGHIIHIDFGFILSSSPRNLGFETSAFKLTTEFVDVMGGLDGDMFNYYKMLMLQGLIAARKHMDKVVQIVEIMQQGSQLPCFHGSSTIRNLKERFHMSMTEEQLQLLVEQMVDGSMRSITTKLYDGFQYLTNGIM
# Assay: KINOMEscan competition binding
# Protocol conditions: compound 10.0 µM
Reported kinase still bound, per cent of control values follow for various molecules
Quantity kind: kinase still bound, per cent of control (%)

# Smiles representation, Result
records = [
    ("O=C(NC1CC1)c1cccc(-c2ccc3c(NC(=O)C4CC4)n[nH]c3c2)c1", 84),
    ("OCCCNc1cc(-c2ccnc(Nc3cccc(Cl)c3)n2)ccn1", 100),
    ("Cn1c(=O)n(-c2ccc(C(C)(C)C#N)cc2)c2c3cc(-c4cnc5ccccc5c4)ccc3ncc21", 100),
    ("CCCS(=O)(=O)Nc1ccc(F)c(C(=O)c2c[nH]c3ncc(-c4ccc(Cl)cc4)cc23)c1F", 0.7),
    ("COc1cc(C(=O)NC2CCN(C)CC2)ccc1Nc1ncc2c(n1)N(C1CCCC1)CCC(=O)N2C(C)C", 100),
]

----------
Reported kinase still bound, per cent of control values follow for various molecules
# System: JAK1 JH2 pseudokinase (human) (UniProt P23458)
# Sequence (P23458 whole entry, looked up): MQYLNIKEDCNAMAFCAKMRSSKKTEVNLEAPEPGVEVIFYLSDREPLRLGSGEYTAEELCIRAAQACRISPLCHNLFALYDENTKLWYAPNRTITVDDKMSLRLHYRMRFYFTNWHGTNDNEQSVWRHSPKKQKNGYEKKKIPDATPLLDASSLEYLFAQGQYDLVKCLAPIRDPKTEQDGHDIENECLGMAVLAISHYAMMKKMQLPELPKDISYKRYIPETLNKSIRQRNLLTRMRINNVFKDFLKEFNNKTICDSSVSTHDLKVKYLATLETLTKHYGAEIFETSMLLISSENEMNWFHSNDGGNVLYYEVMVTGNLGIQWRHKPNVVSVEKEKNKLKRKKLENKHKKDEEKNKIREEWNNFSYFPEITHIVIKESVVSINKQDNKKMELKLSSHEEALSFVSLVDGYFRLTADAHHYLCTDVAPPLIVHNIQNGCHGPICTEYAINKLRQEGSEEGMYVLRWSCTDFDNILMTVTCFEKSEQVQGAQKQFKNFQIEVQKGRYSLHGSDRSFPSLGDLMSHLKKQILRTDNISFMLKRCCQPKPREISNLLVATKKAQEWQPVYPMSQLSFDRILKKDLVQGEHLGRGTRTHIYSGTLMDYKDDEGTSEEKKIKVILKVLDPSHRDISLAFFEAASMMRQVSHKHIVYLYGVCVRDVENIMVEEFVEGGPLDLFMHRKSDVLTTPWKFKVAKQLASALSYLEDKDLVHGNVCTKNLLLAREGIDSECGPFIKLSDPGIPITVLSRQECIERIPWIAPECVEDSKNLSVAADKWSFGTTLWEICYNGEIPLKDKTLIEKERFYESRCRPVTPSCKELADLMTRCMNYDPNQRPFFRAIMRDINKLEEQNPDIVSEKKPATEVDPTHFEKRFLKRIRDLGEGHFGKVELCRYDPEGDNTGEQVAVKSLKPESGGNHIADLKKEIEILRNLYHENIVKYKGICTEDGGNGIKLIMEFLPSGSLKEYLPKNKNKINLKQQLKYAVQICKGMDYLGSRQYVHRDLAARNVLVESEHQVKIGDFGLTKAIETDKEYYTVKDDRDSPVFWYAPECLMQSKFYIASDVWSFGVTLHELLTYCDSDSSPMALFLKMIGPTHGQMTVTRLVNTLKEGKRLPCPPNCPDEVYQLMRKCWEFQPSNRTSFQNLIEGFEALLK
# Assay: KINOMEscan competition binding
# Protocol conditions: compound 10.0 µM

# Smiles representation, kinase still bound, per cent of control
measured = [
    ("O=C(NOC[C@H](O)CO)c1ccc(F)c(F)c1Nc1ccc(I)cc1F", "100%"),
    ("CCC(=O)N1CCN(c2ccc(-n3c(=O)ccc4cnc5ccc(-c6cnc7ccccc7c6)cc5c43)cc2C(F)(F)F)CC1", "76%"),
    ("Cc1cc([C@@H](C)Nc2ccccc2C(=O)O)c2nc(N3CCOCC3)cc(=O)n2c1", "100%"),
    ("OCCCNc1cc(-c2ccnc(Nc3cccc(Cl)c3)n2)ccn1", "100%"),
    ("COc1cc(N2CCN(C)CC2)ccc1Nc1nc(N)c(C(=O)c2c(Cl)cccc2Cl)s1", "100%"),
]

----------
# System: MLTK (human) (UniProt Q9NYL2)
# Sequence (Q9NYL2 whole entry, looked up): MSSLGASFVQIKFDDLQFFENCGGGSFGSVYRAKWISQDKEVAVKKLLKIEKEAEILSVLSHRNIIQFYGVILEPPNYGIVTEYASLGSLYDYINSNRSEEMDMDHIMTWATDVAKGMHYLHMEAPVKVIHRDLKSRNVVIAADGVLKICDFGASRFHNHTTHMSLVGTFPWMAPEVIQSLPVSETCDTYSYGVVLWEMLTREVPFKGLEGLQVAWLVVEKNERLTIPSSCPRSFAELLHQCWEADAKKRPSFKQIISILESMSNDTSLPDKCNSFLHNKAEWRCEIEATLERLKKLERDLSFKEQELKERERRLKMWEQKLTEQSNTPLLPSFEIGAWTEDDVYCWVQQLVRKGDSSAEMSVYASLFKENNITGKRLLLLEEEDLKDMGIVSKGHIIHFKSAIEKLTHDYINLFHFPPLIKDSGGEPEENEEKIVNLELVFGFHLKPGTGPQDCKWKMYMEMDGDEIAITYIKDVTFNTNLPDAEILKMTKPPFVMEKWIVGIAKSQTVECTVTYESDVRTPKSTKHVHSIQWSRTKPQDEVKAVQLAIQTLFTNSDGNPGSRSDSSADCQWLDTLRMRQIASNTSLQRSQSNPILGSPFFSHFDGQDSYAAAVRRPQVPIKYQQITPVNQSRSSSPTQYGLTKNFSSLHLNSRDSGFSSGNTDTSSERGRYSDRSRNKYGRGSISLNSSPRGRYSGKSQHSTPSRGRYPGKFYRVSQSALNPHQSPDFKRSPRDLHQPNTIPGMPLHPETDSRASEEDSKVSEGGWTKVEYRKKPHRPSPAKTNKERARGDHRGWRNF
# Assay: KINOMEscan competition binding
# Protocol conditions: compound 10.0 µM
Reported kinase still bound, per cent of control values follow for various molecules
Quantity kind: kinase still bound, per cent of control (%)

# Molecule, System, Scale unit, Result
rows = [
    ("C=CC(=O)Nc1cccc(Oc2nc(Nc3ccc(N4CCN(C)CC4)cc3OC)ncc2Cl)c1", "MLTK (human) (UniProt Q9NYL2)", "%", 100),
    ("CCCS(=O)(=O)Nc1ccc(F)c(C(=O)c2c[nH]c3ncc(-c4ccc(Cl)cc4)cc23)c1F", "MLTK (human) (UniProt Q9NYL2)", "%", 7.4),
    ("CN(C)C/C=C/C(=O)Nc1cccc(Nc2ncc3c(n2)N(C)c2ccccc2C(=O)N3C)c1", "MLTK (human) (UniProt Q9NYL2)", "%", 79),
    ("CC[C@@H]1C(=O)N(C)c2cnc(Nc3ccc(C(=O)NC4CCN(C)CC4)cc3OC)nc2N1C1CCCC1", "MLTK (human) (UniProt Q9NYL2)", "%", 100),
    ("C=CC(=O)Nc1cccc(Nc2nc(N[C@H]3CC[C@H](N(C)C)CC3)nc3c2ncn3C(C)C)c1", "MLTK (human) (UniProt Q9NYL2)", "%", 100),
    ("COc1cc(C(=O)NC2CCN(C)CC2)ccc1Nc1ncc2c(n1)N(C1CCCC1)C(C)CC(=O)N2C (centres undefined)", "MLTK (human) (UniProt Q9NYL2)", "%", 100),
    ("Cc1ccc2nc(NCCN)c3ncc(C)n3c2c1", "MLTK (human) (UniProt Q9NYL2)", "%", 96),
    ("COc1cc(C(=O)NC2CCN(C)CC2)ccc1Nc1ncc2c(n1)N(C1CCCC1)CCC(=O)N2C(C)C", "MLTK (human) (UniProt Q9NYL2)", "%", 100),
    ("Cc1cc([C@@H](C)Nc2ccccc2C(=O)O)c2nc(N3CCOCC3)cc(=O)n2c1", "MLTK (human) (UniProt Q9NYL2)", "%", 100),
    ("Nc1ccc(-c2ccc3ncc4ccc(=O)n(-c5cccc(C(F)(F)F)c5)c4c3c2)cn1", "MLTK (human) (UniProt Q9NYL2)", "%", 65),
    ("O=C(O)c1ccc(Nc2ncc3c(n2)-c2ccc(Cl)cc2C(c2c(F)cccc2F)=NC3)cc1", "MLTK (human) (UniProt Q9NYL2)", "%", 93),
    ("Cc1ccc(C(=O)Nc2cccc(C(F)(F)F)c2)cc1Nc1cncc(C(N)=O)c1", "MLTK (human) (UniProt Q9NYL2)", "%", 6.9),
    ("OCCCNc1cc(-c2ccnc(Nc3cccc(Cl)c3)n2)ccn1", "MLTK (human) (UniProt Q9NYL2)", "%", 100),
    ("N#Cc1c(NC(=O)c2cccc3ccccc23)sc2c1CCCC2", "MLTK (human) (UniProt Q9NYL2)", "%", 87),
    ("Cn1c(=O)n(-c2ccc(C(C)(C)C#N)cc2)c2c3cc(-c4cnc5ccccc5c4)ccc3ncc21", "MLTK (human) (UniProt Q9NYL2)", "%", 100),
    ("C[C@@H](Oc1cc(-n2cnc3ccc(CN4CCN(C)CC4)cc32)sc1C(N)=O)c1ccccc1C(F)(F)F", "MLTK (human) (UniProt Q9NYL2)", "%", 100),
    ("CCC(=O)N1CCN(c2ccc(-n3c(=O)ccc4cnc5ccc(-c6cnc7ccccc7c6)cc5c43)cc2C(F)(F)F)CC1", "MLTK (human) (UniProt Q9NYL2)", "%", 22),
    ("O=C(NOC[C@H](O)CO)c1ccc(F)c(F)c1Nc1ccc(I)cc1F", "MLTK (human) (UniProt Q9NYL2)", "%", 88),
    ("COc1cc(N2CCN(C)CC2)ccc1Nc1nc(N)c(C(=O)c2c(Cl)cccc2Cl)s1", "MLTK (human) (UniProt Q9NYL2)", "%", 100),
]

----------
Reported kinase still bound, per cent of control values follow for various compounds
# System: MAP2K3 (human)
# Assay: KINOMEscan competition binding
# Protocol conditions: compound 10.0 µM

# Compound, kinase still bound, per cent of control, %
measured = [
    ("N#Cc1c(NC(=O)c2cccc3ccccc23)sc2c1CCCC2", 88),
    ("O=C(NC1CC1)c1cccc(-c2ccc3c(NC(=O)C4CC4)n[nH]c3c2)c1", 33),
    ("C=CC(=O)Nc1cccc(Oc2nc(Nc3ccc(N4CCN(C)CC4)cc3OC)ncc2Cl)c1", 100),
    ("COc1cc(C(=O)NC2CCN(C)CC2)ccc1Nc1ncc2c(n1)N(C1CCCC1)C(C)CC(=O)N2C (centres undefined)", 100),
    ("C[C@@H](Oc1cc(-n2cnc3ccc(CN4CCN(C)CC4)cc32)sc1C(N)=O)c1ccccc1C(F)(F)F", 52),
    ("OCCCNc1cc(-c2ccnc(Nc3cccc(Cl)c3)n2)ccn1", 100),
    ("C=CC(=O)Nc1cccc(Nc2nc(N[C@H]3CC[C@H](N(C)C)CC3)nc3c2ncn3C(C)C)c1", 77),
    ("CCOc1cc2ncc(C#N)c(Nc3ccc(OCc4ccccn4)c(Cl)c3)c2cc1NC(=O)/C=C/CN(C)C", 100),
    ("Cc1ccc2nc(NCCN)c3ncc(C)n3c2c1", 95),
    ("COc1cc(N2CCN(C)CC2)ccc1Nc1nc(N)c(C(=O)c2c(Cl)cccc2Cl)s1", 79),
    ("CCN1CCN(Cc2ccc(Nc3ncc4c(n3)N(C)c3ccccc3C(=O)N4C)cc2C(F)(F)F)CC1", 74),
    ("COc1cc(C(=O)NC2CCN(C)CC2)ccc1Nc1ncc2c(n1)N(C1CCCC1)CCC(=O)N2C(C)C", 100),
    ("Cc1cc([C@@H](C)Nc2ccccc2C(=O)O)c2nc(N3CCOCC3)cc(=O)n2c1", 100),
    ("CC[C@@H]1C(=O)N(C)c2cnc(Nc3ccc(C(=O)NC4CCN(C)CC4)cc3OC)nc2N1C1CCCC1", 100),
]

----------
Reported kinase still bound, per cent of control values follow for various molecules
# System: ACVRL1 (human)
# Assay: KINOMEscan competition binding
# Protocol conditions: compound 10.0 µM
Quantity kind: kinase still bound, per cent of control (%)

# Smiles representation, Quantity kind, Result
measured = [
    ("CCC(=O)N1CCN(c2ccc(-n3c(=O)ccc4cnc5ccc(-c6cnc7ccccc7c6)cc5c43)cc2C(F)(F)F)CC1", "kinase still bound, per cent of control", 83),
    ("O=C(NOC[C@H](O)CO)c1ccc(F)c(F)c1Nc1ccc(I)cc1F", "kinase still bound, per cent of control", 100),
    ("C=CC(=O)Nc1cc(NC(=O)c2ccc(C)c(NC(=O)c3ccno3)c2)cc(C(F)(F)F)c1", "kinase still bound, per cent of control", 100),
    ("Cn1c(=O)n(-c2ccc(C(C)(C)C#N)cc2)c2c3cc(-c4cnc5ccccc5c4)ccc3ncc21", "kinase still bound, per cent of control", 100),
    ("CCN1CCN(Cc2ccc(Nc3ncc4c(n3)N(C)c3ccccc3C(=O)N4C)cc2C(F)(F)F)CC1", "kinase still bound, per cent of control", 100),
    ("COc1cc(N2CCN(C)CC2)ccc1Nc1nc(N)c(C(=O)c2c(Cl)cccc2Cl)s1", "kinase still bound, per cent of control", 84),
]
